B1: PCDHGA10 (parent)
chain: FGIEIEVTDINDNAPKFQAENLDV

- Variants of: B1
- method: protein stability index of a GFP-peptide fusion (GPS, HEK-293T) (PSI 1-6); higher = more stable;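 also: lentivirally expressed fusions sorted by FACS into six bins by GFP to DsRed ratio, PSI derived from sequencing read proportions per bin multiplied by bin number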
- measurement-parameters: c terminus: a fixed tail appended
endpoint-label: protein stability index
API doc: respond with a numeric literal and nothing else, no unit.

// known answers, use as guide
1) F17G : 3.94
2) F1D : 4.71
3) F17S : 3.98
4) N13S : 2.48
5) A19K : 3.37
6) P15D : 3.62

If you can, please state the reported protein stability index value of A19E .
3.83

Also I5A ?
4.42

Also E6T ?
1.98

Also I5S ?
5.39

Also A19F ?
2.42

Also E4A ?
2.46

Also I3N ?
4.68

Also N13T ?
3.1
